Target: T1, mouse GFRAL expressed on cells (mouse, UniProt Q6SJE0 20-393)
T1 sequence: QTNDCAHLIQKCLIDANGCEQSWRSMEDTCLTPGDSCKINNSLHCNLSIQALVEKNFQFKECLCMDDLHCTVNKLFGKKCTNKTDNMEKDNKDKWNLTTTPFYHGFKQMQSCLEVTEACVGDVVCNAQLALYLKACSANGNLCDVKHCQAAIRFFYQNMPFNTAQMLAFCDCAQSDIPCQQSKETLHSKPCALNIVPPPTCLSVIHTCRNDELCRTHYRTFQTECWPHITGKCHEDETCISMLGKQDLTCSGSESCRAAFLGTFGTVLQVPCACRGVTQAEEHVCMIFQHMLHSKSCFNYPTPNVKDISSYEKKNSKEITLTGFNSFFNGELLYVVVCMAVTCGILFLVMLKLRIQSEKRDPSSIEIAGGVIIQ
Assay: cell-based or functional assay
VALUE_KIND: IC50, ELK1-luciferase reporter (mGFRAL/mRET) (nM)
Supply the numeric figure in nM, leaving out any unit text.

{"BINDER": "antibody designated 24G2 (antibody, V domains shown, mouse hybridoma monoclonal) VH: QVQLQQSGAELLKPGASVKLSCKASGYTFTTYWMHWVKQRPGQGLEWIGMIHPNSGSSNYNEKFKNKATLTVDKSSSTAYMQLSSLTSEDSAVYFCARSDYGFIPYFDYWGQGTTLTVSS VL: DILLTQSPAILSVSPGERVSFSCRASQSIGTSIHWYQQRTNGSPRLLIKYASESISGIPSRFSGSGSGTDFTLIINSVESEDIADYYCQQSNSWPTFTFGAGTKLELK", "READOUT_NUMBER": 8.32}
{"BINDER": "antibody designated 12A3 (antibody, V domains shown, mouse hybridoma monoclonal) VH: QIQLVQSGPELKKPGETVKISCKASGYPFTIYGMNWVEQAPGKGLKWMGWINTYSGVPTYADDFKGRFAFSLETSASTAYLQINNLKDEDTATYFCASATGNYWGQGTTLTVSS VL: DIQMTQSPSSLSASLGERVSLTCRASQDIGSSLNWLQQEPDGTIKRLIYATSSLDSGVPKRFSGSRSGSDYSLTISSLESEDFVDYYCLQYASSPYTFGGGTKVEIK", "READOUT_NUMBER": 0.933}
{"BINDER": "antibody designated 1C1 (antibody, V domains shown, mouse hybridoma monoclonal) VH: QMQLKQSGPGLVQPSQSLSITCTVSGFSLNDYGVHWIRQSPGKGLEWLGVIWSGGRTDYNAAFISRLSISKDNSKSQVFFKMSSLQPQDTAIYYCARWALYFLYGGSMDYWGQGTSVTVSS VL: DVVLTQTPLSLPVSPGDQASISCRSSQSLVHSSGITYLHWYLQKPGQSPKLLIYKLSNRFSGVPDRFSGSGSGTDFTLKISRVEAEDLGVYFCSQSTHVPPWTFGGGTKLEIK", "READOUT_NUMBER": 1.19}

Inquiry: Please give the measured IC50, ELK1-luciferase reporter (mGFRAL/mRET) for this binder: antibody designated 5F12 (antibody, V domains shown, mouse hybridoma monoclonal; also called 5F12 Hybridoma) VH: QVQLKQSGTELVRPGASVKLSCKASGYTFTDYYINWVKQRPGQGLEWIARIYPGNGNTYHNEKFKGKATLTAEKSSSTAYMQLSSLTSEDSAVYFCAREGLYYDYDRYFDYWGQGTALTVSS VL: NIVLTQSPASLAVSLGQRATISCRASESVDTYGNSFMHWYQQKPGQPPKLLIYLASNLESGVPARFSGSGSRTDFTLTIDPVEADDAATYYCHQNNEDPPAFGGGTKLEIK
Reply text: 6.28

Inquiry: Please give the measured IC50, ELK1-luciferase reporter (mGFRAL/mRET) for this binder: antibody designated 22N5 (antibody, V domains shown, mouse hybridoma monoclonal) VH: QNQLVQSGPELKKPGEIVKISCKTSGYTFTDYSMHWVKKTPGKGFKWMGWINTETGEPTYADDFKGRFAFSLETSANTAHLQITNLKNEDTATYFCVKGTLNYWGQGTTLTVSS VL: DIKMTQSPSSMYASLGERVTITCKASQDIKSYLNWFQQKPGKSPKTLIYRTKRLVDGVPSRFSGSGSGQDYSLTVSSLEYDDVGIYYCLQYVEFPLTFGDGTKLELK
Reply text: 2.6

Attribution: patent US20170306031A1
